# TESTED TARGET: T1, 4H949-bN
# T1 chain: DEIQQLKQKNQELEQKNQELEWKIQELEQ
# ASSAY PROTOCOL: two-hybrid library CCNG1;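 note: natural log of median RNA to DNA barcode read ratio; higher means stronger binding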
READOUT NAME: interaction score

1: DKIQQLKQEIQELEQENQELKWEIQELEQ [4H2585-bN]
2: DKIQQLEQKNQELKQENQELEWKIQELKQ [4H2518-bN]
3: DKIQQLKQEIQELEQEIQELKWKNQELKQ [4H2576-bN]
Exam item: list the entries in increasing order of interaction score. Response format: the labels, sorted as the prompt asks.
1, 2, 3
(1: -0.975, 2: -0.152, 3: 0.288)

P: DEIQQLKQENQELKQENQELKWEIQELKQ [4H730-bN]
Q: DEIQQLEQKIQELEQEIQELEWKNQELKQ [4H264-bN]
R: DKIQQLEQEIQELKQKNQELEWEIQELKQ [4H2162-bN]
Form: Sort by [interaction score] Order [ ascending ] Response format: the labels, sorted as the prompt asks.
R, P, Q
